# test_system: Urotensin-2 receptor (Rattus norvegicus, UniProt P49684)
# Sequence (P49684 whole entry): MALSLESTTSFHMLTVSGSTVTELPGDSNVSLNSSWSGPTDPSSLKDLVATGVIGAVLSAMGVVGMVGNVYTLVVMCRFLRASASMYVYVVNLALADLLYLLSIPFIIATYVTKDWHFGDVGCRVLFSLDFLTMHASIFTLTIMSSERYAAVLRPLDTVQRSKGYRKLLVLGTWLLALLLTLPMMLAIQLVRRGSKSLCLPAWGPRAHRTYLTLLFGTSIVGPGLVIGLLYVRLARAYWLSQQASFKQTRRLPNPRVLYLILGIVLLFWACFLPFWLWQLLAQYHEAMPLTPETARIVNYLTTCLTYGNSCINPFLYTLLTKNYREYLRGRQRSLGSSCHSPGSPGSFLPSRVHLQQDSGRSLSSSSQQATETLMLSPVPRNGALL
# protocol: Agonist activity at rat urotensin 2 receptor expressed in CHO cells assessed as calcium mobilization by FLIPR
pEC50: −log10 of the molar value. Where a SMILES comes first, the peptide text is derived from it. Bridges are numbered along the chain shown (N, C = ends).
measured_endpoint: pEC50

- CC(C)[C@H](NC(=O)[C@@H]1CSSC[C@H](NC(=O)[C@H](C)NC(=O)[C@H](C)N)C(=O)N[C@@H](Cc2ccccc2)C(=O)N[C@@H](Cc2c[nH]c3ccccc23)C(=O)N[C@@H](CCCCN)C(=O)N[C@@H](Cc2ccc(O)cc2)C(=O)N1)C(=O)O (H-AACFWKYCV-OH; disulfide 3-8): 9.22
- CC(=O)N[C@H]1CSSC[C@@H](C(N)=O)NC(=O)[C@H](Cc2ccc(O)cc2)NC(=O)[C@H](CCCCN)NC(=O)[C@@H](Cc2c[nH]c3ccccc23)NC(=O)[C@H](Cc2ccccc2)NC1=O: 7.59
- CC(C)[C@H](NC(=O)[C@@H]1CSSC[C@H](NC(=O)[C@H](CC(=O)O)NC(=O)[C@H](C)NC(=O)[C@@H](NC(=O)CNC(=O)[C@H](C)N)[C@@H](C)O)C(=O)N[C@@H](Cc2ccccc2)C(=O)N[C@@H](Cc2c[nH]c3ccccc23)C(=O)N[C@@H](CCCCN)C(=O)N[C@@H](Cc2ccc(O)cc2)C(=O)N1)C(=O)O (H-AGTADCFWKYCV-OH; disulfide 6-11): 9.77
- CC(=O)N[C@H]1CSSC[C@@H](C(N)=O)NC(=O)[C@@H](Cc2ccc(O)cc2)NC(=O)[C@H](CCCCN)NC(=O)[C@H](Cc2c[nH]c3ccccc23)NC(=O)[C@H](Cc2ccccc2)NC1=O: 7.43

* * *

# test_system: Urotensin-2 receptor (Rattus norvegicus, UniProt P49684)
# protocol: Displacement of [125I]U2 from rat urotensin 2 receptor expressed in CHO cells
# Assay type: cell-based
# test_context: cho
measured_endpoint: Ki

Entry `Ac-SFWKYS-NH2` needs its Ki filled in; supply it.
< 10 µM

* * *

# Tested on: Rattus norvegicus
# protocol: Plasma concentration in rat at 10 mg/kg, iv
# Type: ADME, organism-based
# Parameters: dose 10 mg/kg, route intravenous
# test_context: in vivo
Counter-ions that a name gives are not always drawn.
measured_endpoint: concentration (µM)
Hi! Could you send only the number? It should be in µM, unit omitted.

For Cc1cc(NC(=O)NCCN2CCC(O)(Cc3ccccc3)CC2)c2ccccc2n1 [PALOSURAN SULFATE] , write its concentration.
5

* * *

# test_system: Urotensin-2 receptor (Homo sapiens)
# Sequence (Q9UKP6 whole entry): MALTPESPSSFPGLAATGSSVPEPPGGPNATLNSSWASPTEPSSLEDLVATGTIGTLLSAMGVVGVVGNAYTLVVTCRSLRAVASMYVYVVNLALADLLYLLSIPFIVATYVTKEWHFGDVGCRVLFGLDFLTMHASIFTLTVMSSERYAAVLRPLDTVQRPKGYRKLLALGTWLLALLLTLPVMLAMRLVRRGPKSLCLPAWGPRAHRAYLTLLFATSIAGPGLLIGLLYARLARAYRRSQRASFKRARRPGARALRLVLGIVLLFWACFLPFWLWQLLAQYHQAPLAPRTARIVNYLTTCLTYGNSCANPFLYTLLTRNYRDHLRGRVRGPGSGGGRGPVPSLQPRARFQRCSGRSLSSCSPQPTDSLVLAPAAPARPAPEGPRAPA
# protocol: Agonist activity at human urotensin 2 expressed in CHO cells by FLIPR
# Format: functional, cell-based
pKi: −log10 of the molar value.
measured_endpoint: pKi

* CCN1CCN(c2cccc3c2[C@H]2CCC[C@H](c4ccc(OC)c(OC)c4)N2C3=O)CC1 | 6.41
* CN(C)CCCOc1ccc(CN2CC[C@H](NC(=O)c3ccc(Cl)c(Cl)c3)C2)cc1 | 6.60

* * *

# test_system: Urotensin-2 receptor (Rattus norvegicus, UniProt P49684)
# protocol: Agonist activity at rat urotensin 2 receptor expressed in CHO cells assessed as calcium mobilization by FLIPR
# Type: functional, cell-based
measured_endpoint: pKi
In simple prose, pKi is minus the logarithm base ten of a concentration in moles per litre.

Report pKi for `CCN1CCN(c2cccc3c2[C@H]2CCC[C@H](c4ccc(OC)c(OC)c4)N2C3=O)CC1`
8.20

* * *

# test_system: Urotensin-2 receptor (Rattus norvegicus, UniProt P49684)
# protocol: Antagonist activity at rat urotensin 2 receptor expressed in CHO cells assessed as calcium mobilization by FLIPR
# Assay type: functional, cell-based
Where a name gives a salt, the structure may show the parent alone.
measured_endpoint: Ki

Name the recorded Ki of the molecule listed here: Cc1cc(NC(=O)NCCN2CCC(O)(Cc3ccccc3)CC2)c2ccccc2n1 [PALOSURAN SULFATE]
> 1000 nM

* * *

# protocol: Oral bioavailability in rat
# Format: ADME, organism-based
# test_context: in vivo
measured_endpoint: bioavailability (%)

• CCN1CCN(c2cccc3c2[C@H]2CCC[C@H](c4ccc(OC)c(OC)c4)N2C3=O)CC1 = 35

1: CN(C)CCOc1cc(NS(=O)(=O)c2c(Cl)cc(C(F)(F)F)cc2Cl)ccc1Cl
2: CCN1CCN(c2cccc3c2CN([C@@H](CCCNS(=O)(=O)c2cccs2)c2ccc(OC)c(OC)c2)C3=O)CC1
Compare 1 and 2 and name the one whose reported bioavailability is smaller. State your choice using its label.
2
(2: 10%, 1: 100%)

* * *

# test_system: Urotensin-2 receptor (Rattus norvegicus, UniProt P49684)
# protocol: Agonist activity at rat urotensin 2 receptor expressed in CHO cells assessed as calcium mobilization at 1000 nM by FLIPR
# Assay type: functional, cell-based
measured_endpoint: Ki (nM)
Give just the number in nM; leave the unit off.

Please report Ki for the following molecule: `CC(C)[C@H](NC(=O)c1cc2ccccc2s1)C(=O)N[C@H]1CCN(Cc2ccc(OCCCN(C)C)cc2)C1`
600

* * *

# test_system: Urotensin-2 receptor (Rattus norvegicus, UniProt P49684)
# protocol: Binding affinity to rat urotensin 2 receptor
measured_endpoint: Ki (nM)
Give the value, in units of nM, as a plain number.

# return Ki of `CN(C)CCOc1cc(NS(=O)(=O)c2c(Cl)cc(C(F)(F)F)cc2Cl)ccc1Cl` (system: Urotensin-2 receptor (Rattus norvegicus, UniProt P49684))
121

* * *

# test_system: Urotensin II receptor (Felis catus, UniProt Q533H1)
# Sequence (Q533H1 whole entry): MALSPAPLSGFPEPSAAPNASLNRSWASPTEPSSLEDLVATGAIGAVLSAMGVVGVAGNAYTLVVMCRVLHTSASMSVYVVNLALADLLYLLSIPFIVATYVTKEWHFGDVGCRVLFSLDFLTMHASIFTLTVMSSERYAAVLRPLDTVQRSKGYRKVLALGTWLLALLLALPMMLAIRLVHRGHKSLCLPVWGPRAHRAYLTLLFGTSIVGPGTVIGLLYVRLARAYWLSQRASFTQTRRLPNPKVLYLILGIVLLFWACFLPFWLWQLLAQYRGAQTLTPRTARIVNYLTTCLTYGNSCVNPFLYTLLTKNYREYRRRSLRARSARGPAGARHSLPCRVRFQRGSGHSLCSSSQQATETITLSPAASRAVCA
Structures can show the parent of a compound that is named as a salt.
measured_endpoint: Ki

Write Ki of Cc1cc(NC(=O)NCCN2CCC(O)(Cc3ccccc3)CC2)c2ccccc2n1 [PALOSURAN SULFATE] ; system used: Urotensin II receptor (Felis catus, UniProt Q533H1)
> 1 µM

* * *

The molecules listed here are annotated with their EC50.
# test_system: Urotensin-2 receptor (Rattus norvegicus, UniProt P49684)
# protocol: Agonist activity at rat urotensin 2 receptor expressed in CHO cells assessed as calcium mobilization by FLIPR
Where a SMILES comes first, the peptide text is derived from it. Bridges are numbered along the chain shown (N, C = ends). [ ]: non-standard residue; d: D form. 2Nal = N[C@@H](Cc1ccc2ccccc2c1)C(=O)O
Your answer is read as nM, so omit the unit and give the number.

Here is how some molecules turned out for EC50.
• CC(C)[C@H](NC(=O)[C@@H]1CSSC[C@H](NC(=O)[C@H](CC(=O)O)NC(=O)[C@H](C)N)C(=O)N[C@@H](C)C(=O)N[C@@H](Cc2c[nH]c3ccccc23)C(=O)N[C@@H](CCCCN)C(=O)N[C@@H](Cc2ccc(O)cc2)C(=O)N1)C(=O)O (H-ADCAWKYCV-OH; disulfide 3-8) = 6.5
• CC(C)[C@H](NC(=O)[C@@H]1CSSC[C@H](NC(=O)[C@H](CC(=O)O)NC(=O)[C@H](C)NC(=O)[C@@H](NC(=O)CNC(=O)[C@H](C)N)[C@@H](C)O)C(=O)N[C@@H](Cc2ccccc2)C(=O)N[C@@H](Cc2c[nH]c3ccccc23)C(=O)N[C@@H](CCCCN)C(=O)N[C@@H](Cc2ccc3ccccc3c2)C(=O)N1)C(=O)O (H-AGTADCFWK[2Nal]CV-OH; disulfide 6-11) = 0.34

Proceeding to the next molecule to report its EC50.
Specify measured EC50 for CC(=O)N[C@H]1CSSC[C@@H](C(N)=O)NC(=O)[C@H](Cc2ccc(O)cc2)NC(=O)[C@H](CCCCN)NC(=O)[C@H](Cc2ccc3ccccc3c2)NC(=O)[C@H](Cc2ccccc2)NC1=O (Ac-CF[2Nal]KYC-NH2; disulfide 1-6) .
31

Values were extracted from ChEMBL document CHEMBL1165847.
